The measurements presented in this section are drawn from paper PMC3869726.

- Target desc: Human neutrophil elastase (HNE) (Homo sapiens)
- Construct: HNE (EC 3.4.21.37) from human leukocytes was purchased; purchased Innovative Research Company (Novi, Michigan); host or cells: human leukocytes (natural source)
- Sequence (P08246 30-247 limits assumed): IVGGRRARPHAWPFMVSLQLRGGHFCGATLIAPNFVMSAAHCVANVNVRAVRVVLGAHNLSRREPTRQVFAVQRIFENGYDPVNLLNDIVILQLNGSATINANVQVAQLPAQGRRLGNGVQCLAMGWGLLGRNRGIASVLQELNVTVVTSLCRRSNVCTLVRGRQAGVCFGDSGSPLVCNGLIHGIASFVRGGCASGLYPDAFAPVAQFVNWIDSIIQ
- Assay name: HNE activity inhibitory bioassay (MeO-Suc-Ala-Ala-Pro-Val-pNA hydrolysis, absorbance 405 nm)
- Format: biochemical
- Experimental conditions: 30 µM compound; n = 3
Classify by measured Anti-HNE activity, inhibitory ratio: label 1 if it is equal to or exceeds 80%, label 0 if it is smaller.

Structure notation	Assigned category
C=C(C)[C@@H]1CC[C@]2(C)CC[C@]3(C)[C@H](CC[C@@H]4[C@@]5(C)CC[C@H](O)C(C)(C)[C@@H]5CC[C@]43C)[C@@H]12	label 1
CC1(C)[C@@H](O[C@H]2O[C@H](C(=O)O)[C@@H](O)[C@H](O)[C@H]2O[C@@H]2O[C@H](C(=O)O)[C@@H](O)[C@H](O)[C@H]2O)CC[C@]2(C)[C@H]3C(=O)C=C4[C@@H]5C[C@@](C)(C(=O)O)CC[C@]5(C)CC[C@@]4(C)[C@]3(C)CC[C@@H]12	label 0
C[C@H]1[C@H](C)CC[C@]2(C(=O)O)CC[C@]3(C)C(=CC[C@@H]4[C@@]5(C)CC[C@H](O)C(C)(C)[C@@H]5CC[C@]43C)[C@H]12	label 1
CC1(C)[C@@H](O)CC[C@]2(C)[C@H]3C(=O)C=C4[C@@H]5C[C@@](C)(C(=O)O)CC[C@]5(C)CC[C@@]4(C)[C@]3(C)CC[C@@H]12	label 0
